- TEST SYSTEM: human ether-à-go-go-related gene (hERG) potassium channel (human);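 further: peak tail current of the secondary pulse compared with the same well before compound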
- Sequence (Q12809 whole entry, looked up): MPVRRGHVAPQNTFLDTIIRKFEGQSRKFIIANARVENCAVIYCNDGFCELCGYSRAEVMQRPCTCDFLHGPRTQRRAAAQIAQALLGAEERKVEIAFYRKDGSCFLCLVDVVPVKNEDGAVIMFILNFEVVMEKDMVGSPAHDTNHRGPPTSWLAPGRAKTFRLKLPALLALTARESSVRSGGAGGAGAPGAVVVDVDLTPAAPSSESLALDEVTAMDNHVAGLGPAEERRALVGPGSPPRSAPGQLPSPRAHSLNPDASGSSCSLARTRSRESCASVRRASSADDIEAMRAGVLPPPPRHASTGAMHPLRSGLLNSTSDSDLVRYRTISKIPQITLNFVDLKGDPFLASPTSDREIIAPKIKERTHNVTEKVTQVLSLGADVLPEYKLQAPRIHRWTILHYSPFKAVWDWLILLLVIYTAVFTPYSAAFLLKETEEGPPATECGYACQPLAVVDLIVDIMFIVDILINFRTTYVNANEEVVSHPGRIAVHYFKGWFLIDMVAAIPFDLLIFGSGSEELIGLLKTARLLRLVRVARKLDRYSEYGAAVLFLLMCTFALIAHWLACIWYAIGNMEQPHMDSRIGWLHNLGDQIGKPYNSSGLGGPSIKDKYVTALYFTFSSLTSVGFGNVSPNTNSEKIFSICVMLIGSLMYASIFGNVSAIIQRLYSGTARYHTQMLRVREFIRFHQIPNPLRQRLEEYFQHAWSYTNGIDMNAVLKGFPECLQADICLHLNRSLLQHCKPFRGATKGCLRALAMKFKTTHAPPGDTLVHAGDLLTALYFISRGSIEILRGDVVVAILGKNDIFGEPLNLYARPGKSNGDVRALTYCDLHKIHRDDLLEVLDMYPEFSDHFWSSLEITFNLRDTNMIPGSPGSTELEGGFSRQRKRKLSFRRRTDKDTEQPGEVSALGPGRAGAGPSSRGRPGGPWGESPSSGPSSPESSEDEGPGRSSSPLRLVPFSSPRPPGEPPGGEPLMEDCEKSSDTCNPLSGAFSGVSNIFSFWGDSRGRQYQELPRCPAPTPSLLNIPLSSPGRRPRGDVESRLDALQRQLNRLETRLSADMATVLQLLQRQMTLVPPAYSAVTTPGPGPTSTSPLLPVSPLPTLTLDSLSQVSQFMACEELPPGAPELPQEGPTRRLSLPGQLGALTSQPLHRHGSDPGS
- EXPERIMENT SUMMARY: primary screen, population patch clamp on CHO cells stably expressing hERG; higher = less effect of the substance
The whole screen tested about 310,000 compounds, of which about 14,000 (4.5%) showed an effect of 50% or more. The effect is printed as a negative number. The sample holds strong results, similar compounds and a random draw of the others, so the mix is not that of the screen.
MEASURED PROPERTY: hERG current change (%, negative = inhibition) at 10uM (%)
Give bare numbers, in %.

Known results for compounds:
COC(=O)c1ccc(NC(=S)N2CCC(C(N)=O)CC2)cc1 ... 12.2
Cl.NC(=NC1CCCCC1)c1ccc(Cl)cc1 ... -39.2

State the recorded hERG current change (%, negative = inhibition) at 10uM for every item in the following list.
1. COc1ccc(C(=O)NCC(=O)NCC(=O)OCC(=O)c2ccc(C)cc2)cc1
2. CN(c1ccccc1)S(=O)(=O)c1ccc(Cl)nc1
3. COc1ccc(/C=N/NC(=O)C(C)n2nnc3ccccc32)cc1OC (stereo not shown)
4. COc1ccc(C(=O)NCC(=O)OCc2ccc([N+](=O)[O-])cc2)cc1
5. Fc1ccc(CNCc2cccc(Br)c2)cc1

Response:
1. 4.23
2. 10.8
3. 2.4
4. -58.3
5. 13.9

State the recorded hERG current change (%, negative = inhibition) at 10uM for every item in the following list.
1. N/C(=N\OC(=O)CCC1CCCCC1)c1ccc([N+](=O)[O-])cc1
2. Cl.NC(=NC1CCCCC1)c1ccc([N+](=O)[O-])cc1
3. COc1ccc(C(=O)OCC(=O)c2cc(C)n(CC3CCCO3)c2C)cc1[N+](=O)[O-] (stereo not shown)

Response:
[-8.1, -57.2, -42.9]
